These measurements were taken from patent US20150086555A1.

Each entry below carries its recorded Trimeric HA Binding: RLU.
measured.target: recombinant soluble homotrimeric HA of A/California/4/09 (H1N1) (Influenza A virus A/California/04/2009(H1N1))
method: trimeric HA microarray, transfection supernatant set 2
experimental.context: remark: other sources report otherwise
property.name: Trimeric HA Binding: RLU (RLU)

[
  {
    "binder": "TCN-563 (5237_B21) (antibody, V domains shown) VH: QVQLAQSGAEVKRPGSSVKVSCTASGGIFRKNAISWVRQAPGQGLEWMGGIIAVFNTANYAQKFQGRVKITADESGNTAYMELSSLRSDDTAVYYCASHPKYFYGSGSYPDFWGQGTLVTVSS VL: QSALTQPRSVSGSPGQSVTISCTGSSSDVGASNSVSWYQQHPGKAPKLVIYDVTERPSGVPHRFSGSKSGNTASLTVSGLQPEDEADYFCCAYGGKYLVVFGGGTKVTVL",
    "quantitative.readout": 21200
  },
  {
    "binder": "TCN-526 (5084_C17) (antibody, V domains shown) VH: EVLMVESGGGLVQPGGSVRLSCVASGFSFSSHWMTWVRQAPGKGLEWVANIEDDGGDKYYVDSVKGRFIISRDNAKNSVYLQMNSLRAEDTAVYFCARGSGSSDRSDYDPHYYYYLDVWGKGATVTVSS VL: DIQLTQSPSSLSASVGDRVTITCRASQSISRYLNWYQQKPGKAPKLLLFAASTLLDGVPSRFSGSGSGTDFTLTISSLQPEDFATYYCQRNHSPSWTFGQGTRVEIK",
    "quantitative.readout": 3600
  },
  {
    "binder": "TCN-528 (5087_P17) (antibody, V domains shown) VH: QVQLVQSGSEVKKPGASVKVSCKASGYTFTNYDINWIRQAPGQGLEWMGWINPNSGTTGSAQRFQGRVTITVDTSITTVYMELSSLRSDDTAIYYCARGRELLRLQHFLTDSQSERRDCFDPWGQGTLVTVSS VL: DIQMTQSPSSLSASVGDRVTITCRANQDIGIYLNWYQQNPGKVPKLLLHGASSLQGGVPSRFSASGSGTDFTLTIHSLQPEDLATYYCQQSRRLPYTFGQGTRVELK",
    "quantitative.readout": 44600
  },
  {
    "binder": "TCN-527 (5086_C06) (antibody, V domains shown) VH: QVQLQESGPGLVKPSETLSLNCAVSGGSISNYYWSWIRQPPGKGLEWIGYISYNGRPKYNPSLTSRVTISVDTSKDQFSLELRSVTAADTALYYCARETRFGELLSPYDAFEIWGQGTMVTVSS VL: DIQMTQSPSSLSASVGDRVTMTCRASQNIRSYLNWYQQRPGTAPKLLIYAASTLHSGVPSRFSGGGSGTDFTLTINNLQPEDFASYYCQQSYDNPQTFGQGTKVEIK",
    "quantitative.readout": 21500
  }
]
